- System: Plasmodium falciparum
- Assay Comment: Calibr Malaria Delayed Death Assay SOP
- Type: functional, organism-based
- Set-up: scale not given: in the data most compounds retested in dose-response had high values
- Conditions Used: concentration 4.99e-06 (unit not given; other assays of the set use mol/L)
The campaign covered roughly 38,000 compounds. About 1,200 (3.2%) showed an effect of 50% or more. The median lay at about -58%. What follows is part of a selection rich in strong results, with near analogues and random picks from the rest.
Kindly supply the reported Percent Effect values for the records listed here.
Numeric answer only, unit % assumed.

Reported Percent Effect for CC(C)CN1CC(C(=O)NCCOc2ccc3c(c2)OCO3)CC1=O (configuration not stated) : what is it?
-115.4

Reported Percent Effect for COc1ccc(CC(C)(O)CNC(=O)c2cccs2)cc1 (configuration not stated) : what is it?
88.99

Reported Percent Effect for `NC(=O)c1ccc(N2CCCCC2)c(NC(=O)c2cc(Br)ccc2F)c1` : what is it?
-77.22

Reported Percent Effect for `NC(=O)c1ccc(N2CCCCC2)c(NC(=O)c2cc(Br)ccc2Cl)c1` : what is it?
-37.22

Reported Percent Effect for `NC(=O)c1ccc(N2CCCCC2)c(NC(=O)c2ccc(Br)cc2)c1` : what is it?
70.21

Reported Percent Effect for `CCc1cccc(N2CCC(NC(=O)CCNC(N)=O)CC2)c1` : what is it?
-70

Reported Percent Effect for `O=C(Cn1ccc2c(Cl)cccc21)N1CCCC1` : what is it?
-3.751

Reported Percent Effect for `Fc1cccc(OC2CCN(CCn3cc4ccccc4n3)CC2)c1` : what is it?
-79.08

Reported Percent Effect for `CNC(=O)c1cnc2c(C)csc2c1` : what is it?
-145.8

Reported Percent Effect for `COc1cccc(CNCc2c(C)nc3sc(C)cn23)c1OC` : what is it?
20.21

Reported Percent Effect for Cc1ccc(C(F)(F)F)cc1NC(=O)C1CCCN1 (configuration not stated) : what is it?
-141.5

Reported Percent Effect for CC(O)(CCc1ccccc1)CNC(=O)c1cccs1 (configuration not stated) : what is it?
-19.61

###

- Tested on: Plasmodium falciparum
- Assay Comment: Calibr Malaria Delayed Death Assay SOP
- Assay type: functional, organism-based
- Set-up: scale not given: in the data most compounds retested in dose-response had high values
- Conditions Used: concentration 4.99e-06 (unit not given; other assays of the set use mol/L)
About 1,200 (3.2%) of roughly 38,000 compounds showed an effect of 50% or more. The median lay at about -58%. For the sample, strong results were picked, then their nearest neighbours and some compounds at random.
Measurement Name: Percent Effect (%)
Numeric answer only, unit % assumed.

Reported Percent Effect for O=C(O)C(F)(F)F.O=C(O)C(F)(F)F.c1cncc(C2COC3(CCN(Cc4nccs4)CC3)C2)c1 (stereo not drawn) : what is it?
-1.865

Reported Percent Effect for `CC(C)c1n[nH]c(C(=O)Nc2ccncc2)c1Br` : what is it?
-170.8

Reported Percent Effect for CCN(CC)C(CNS(=O)(=O)c1ccc(C(N)=O)cc1)c1ccco1 (stereo not drawn) : what is it?
-82.08

Reported Percent Effect for `N#CCCN(Cc1cccnc1)C(=O)c1ccn(-c2ccccc2)n1` : what is it?
-29.34

Reported Percent Effect for `O=C(c1ccn(-c2ccc(F)cc2)n1)N(CCO)Cc1cccnc1` : what is it?
-20.41

Reported Percent Effect for `N#CCCCS(=O)(=O)NC1(c2cccc(Cl)c2)CC1` : what is it?
-108.7

Reported Percent Effect for `Cc1ccnc(NC(=O)CCNC(=O)c2ccccc2Cl)c1` : what is it?
-154.4

Reported Percent Effect for O=C(NCc1nnnn1-c1ccccc1)c1ccc(C2CCCO2)s1 (stereo not drawn) : what is it?
-146

Reported Percent Effect for `CC(C)(C)c1ccc(C2(C(=O)NCCCS(C)(=O)=O)CC2)cc1` : what is it?
-66.39

Reported Percent Effect for Cc1[nH]c(=O)[nH]c(=O)c1CN1CCCC(CCc2ccccc2)C1 (stereo not drawn) : what is it?
-20.63

Reported Percent Effect for `Cc1cccc(NC(=O)c2[nH]nc(C(C)C)c2Br)n1` : what is it?
55.91

Reported Percent Effect for `c1ccc(-c2cc(CN3C[C@@H]4CC[C@H](C3)N(CC3CC3)C4)on2)cc1` : what is it?
16.35

Reported Percent Effect for `CSCC(=O)NC1(c2cccc(Cl)c2)CC1` : what is it?
-138.1

Reported Percent Effect for `CC(C)c1n[nH]c(C(=O)Nc2cc[nH]n2)c1Br` : what is it?
-216.8

Reported Percent Effect for `Brc1ccc(C2(NCc3noc(C4CC4)n3)CCC2)cc1` : what is it?
8.334

Reported Percent Effect for `c1ccc(-c2cc(CN3C[C@H]4CC[C@H]3C4)on2)cc1` : what is it?
2.742

Reported Percent Effect for `Cc1ccnc(NC(=O)c2[nH]nc(C(C)C)c2Br)c1` : what is it?
72.66

Reported Percent Effect for `C[C@@H]1CN(Cc2c[nH]c(CC3CCCC3)n2)CC[C@]1(C)O` : what is it?
-135.8

Reported Percent Effect for `CN(C)CCN(Cc1cccnc1)C(=O)c1ccn(-c2ccccc2)n1` : what is it?
87.52

Reported Percent Effect for `Cc1cccc(NC(=O)c2ccc(-n3cncn3)nn2)n1` : what is it?
-82.38

Reported Percent Effect for OC1(CN2CCCCC2)CCN(Cc2c[nH]c(CC3CCCC3)n2)C1 (stereo not drawn) : what is it?
52.98

Reported Percent Effect for c1[nH]c(CC2CCCC2)nc1CN1CCCC2(CCOC2)C1 (stereo not drawn) : what is it?
81.53

Reported Percent Effect for CC(O)CN1CCC(CN(C)Cc2cc(F)cc3cccnc23)CC1 (stereo not drawn) : what is it?
86.77

###

- System: Plasmodium falciparum
- Assay Comment: Calibr Malaria Delayed Death Assay SOP
- Type: functional, organism-based
- Parameters: scale not given: in the data most compounds retested in dose-response had high values
- Conditions Used: concentration 4.99e-06 (unit not given; other assays of the set use mol/L)
About 1,200 (3.2%) of roughly 38,000 compounds showed an effect of 50% or more. The median lay at about -58%. The list comes from a sample in which strong results are over-represented; it also holds close analogues and randomly drawn compounds.
Kindly supply the reported Percent Effect values for the records listed here.
Numeric answer only, unit % assumed.

Reported Percent Effect for `CC[C@H]1CN2CC[C@H]1C[C@@H]2CNCc1cccc(C#N)c1` : what is it?
34.74

Reported Percent Effect for `COc1ccc2[nH]cc(-c3ccnc(N4CCC(C)CC4)n3)c2c1` : what is it?
-185.2

Reported Percent Effect for `CC[C@H]1CN2CC[C@H]1C[C@@H]2CNC(=O)Nc1cccc(C(F)(F)F)c1` : what is it?
-88.31

Reported Percent Effect for Cc1nc(C)n(CC2CCCN(Cc3noc(C)n3)C2)n1 (stereo unspecified) : what is it?
-83.37

Reported Percent Effect for `NC(=O)C1CCN(CCCNC(=O)Nc2nccs2)CC1` : what is it?
-52.35

Reported Percent Effect for CC(Nc1ncnc2c1CCNC2)c1ccc2c(c1)CCCC2 (stereo unspecified) : what is it?
70.15

Reported Percent Effect for `CC[C@H]1CN2CC[C@H]1C[C@@H]2CNCc1ccc(OC)cc1` : what is it?
6.891

Reported Percent Effect for `CCN(CC)S(=O)(=O)c1ccc(CNC(=O)N2CCC(C#N)CC2)cc1` : what is it?
-96.87

Reported Percent Effect for CS(=O)(=O)NCC1CCCCN1Cc1cccc(C#N)c1 (stereo unspecified) : what is it?
-99.98

Reported Percent Effect for `Cc1cc(C(=O)N2CCN(c3nc4c(C)cccc4s3)CC2)no1` : what is it?
-18.05

Reported Percent Effect for CCN1CCCC1CN(CCN(C)C)S(=O)(=O)c1cccc(C#N)c1 (stereo unspecified) : what is it?
58.76

Reported Percent Effect for COc1cc(-c2ccc(F)c3c2OC(CN)C3)cc(OC)c1OC (stereo unspecified) : what is it?
-14

Reported Percent Effect for CC1c2ncc(CN3CCN(C)CC3)n2CCN1Cc1ccccn1.O=C(O)C(F)(F)F.O=C(O)C(F)(F)F.O=C(O)C(F)(F)F.O=C(O)C(F)(F)F (stereo unspecified) : what is it?
-124

Reported Percent Effect for CC(C)NC(=O)CC1COC2(CCN(Cc3cccs3)CC2)C1.O=C(O)C(F)(F)F (stereo unspecified) : what is it?
-6.903

Reported Percent Effect for `CC[C@H]1CN2CC[C@H]1C[C@@H]2CNC(=O)NC1CCCCC1` : what is it?
-27.77

Reported Percent Effect for `CC(C)NC(=O)NC[C@H]1C[C@@H]2CCN1C[C@@H]2CN(C)c1ccccc1` : what is it?
-39.27

Reported Percent Effect for `CC[C@H]1CN2CC[C@H]1C[C@@H]2CNCc1ccc(OC(F)(F)F)cc1` : what is it?
85.66

Reported Percent Effect for `CC[C@H]1CN2CC[C@H]1C[C@@H]2CNC(=O)Nc1cccc(C#N)c1` : what is it?
-82.85

Reported Percent Effect for CC(C#N)CN(C)C(=O)CCNC(=O)OCC(F)(F)F (stereo unspecified) : what is it?
-88.17

Reported Percent Effect for `CC[C@H]1CN2CC[C@H]1C[C@@H]2CNC(=O)Nc1cc(OC)cc(OC)c1` : what is it?
63.7

Reported Percent Effect for CCN1CCCC1CN(CCN(C)C)S(=O)(=O)c1ccc(C#N)cc1 (stereo unspecified) : what is it?
58.03

# credit: ChEMBL document CHEMBL3988442
